Data provenance is patent US11413278B2.

Test system: phosphorylated γH2A.X and TP53BP1
test details: DNA damage marker analysis (immuno-staining)
particulars: human, 24 h
experimental readout: R = Potential DNA damaging
API doc: respond with a numeric literal and nothing else, no unit.

Below, 6 compounds whose answers are already recorded.
O=C(/C=C/c1cn(-c2ccccc2)nc1-c1cccnc1)c1ccccc1 [Gr-6B] :: 0
CC(C)(C)c1ccc(OCC(=O)Nc2ccc3c4c(cccc24)C(=O)NC3=O)cc1 [O22] :: 0
O=C(c1ccc([N+](=O)[O-])o1)N1CCc2ccccc21 [O13] :: 0
O=C(Nc1cc(C(F)(F)F)ccc1Cl)c1ccc([N+](=O)[O-])o1 [Gr-1B] :: 0
N=C1S/C(=C\c2cn(-c3ccccc3)nc2-c2cccs2)C(=O)N1c1nccs1 [Gr-6C] :: 1
O=C(NCc1cccnc1)/C(=C\c1ccc(Br)cc1)S(=O)(=O)c1ccccc1 [Gr-7B] :: 0

Shift focus to the following entry.
Measured on phosphorylated γH2A.X and TP53BP1, CCCC(=O)Nc1ccc(-c2cn3cccc(C)c3n2)cc1 [O12] has a documented R = Potential DNA damaging of 0

###

Test system: WI-38 cells
test details: Long-term effects on cell viability (5 days, ATP; morphology, PI imaging)
Assay type: cell-based
particulars: human, 5 days, 10 μM
Listing of recorded O = Potential toxicity by entry.
The response must contain the number and no unit.

Record excerpt, results attached:
Nc1ccccc1S(=O)(=O)Nc1cccc2cccnc12 :: 0
O=C(NCc1cccnc1)/C(=C\c1cccc(Oc2ccccc2)c1)S(=O)(=O)c1ccccc1 :: 0

Data point: `Oc1ncnc2sc3c(c12)CCC3` ; O = Potential toxicity = 0

`CCc1ccccc1NC(=O)c1ccc([N+](=O)[O-])o1` yielded O = Potential toxicity of 1

Sure, the documented O = Potential toxicity for `COC(=O)CCc1sc2c(c1[N+](=O)[O-])NC(=O)CCC2` is 1

For record `O=[N+]([O-])c1ccccc1S(=O)(=O)Nc1cccc2cccnc12` the listed O = Potential toxicity is 0

Recorded result, `Cc1ccc(S(=O)(=O)Nc2cccc3cccnc23)cc1` , O = Potential toxicity: 0

For reference, reported O = Potential toxicity for `CCc1ccc(Oc2nc3ccccn3c(=O)c2/C=C(\C#N)C(=O)NCc2ccco2)cc1` stands at 0

Reported O = Potential toxicity of `Cc1cc(C)c(C(=O)/C=C/c2ccccc2F)c(O)n1` : 0

###

Recorded A = Cadmium resistant values for a group of compounds are listed next.
System: WI-38 cells
test details: CdCl2 (cadmium) resistance assay
Format: cell-based, human
particulars: summary score
Quick one: just the number, no unit, thanks!

O=C(NCc1cccnc1)/C(=C\c1ccc(Br)cc1)S(=O)(=O)c1ccccc1 :: 1
CC1C(=O)C(C)C(c2cc(Cl)ccc2O)NC1c1cc(Cl)ccc1O (stereo not drawn) :: 1

Now, please, on to the next compound.
Note to self: A = Cadmium resistant recorded for `COc1ccc(C(=O)/C=C/c2cccc(Cl)c2)c(OC)c1` was 1

###

System: NRF2
test details: qPCR analysis of NRF2-regulated genes
Type: cell-based, human
particulars: Homo sapiens; WI-38 cells, 10 μM, 24 hrs, n=4, qPCR normalized by B2M; read-out: HMOX1 Normalized fold change
# cutoff 2 applies to fold induction at 10 µM; >= gives T, < gives F

Worked set:
N=C1S/C(=C\c2cn(-c3ccccc3)nc2-c2cccs2)C(=O)N1c1nccs1 :: T
CCc1ccc(Oc2nc3ccccn3c(=O)c2/C=C(\C#N)C(=O)NC2CCCCC2)cc1 :: T

Hi, just wondering whether `Cc1ccc(NC(=O)c2ccc([N+](=O)[O-])o2)cc1C` shows fold induction at 10 µM of 2 or higher.
F

Reported fold induction at 10 µM reaches at least 2 for `O=C(NCc1cccnc1)/C(=C\c1ccc(Br)cc1)S(=O)(=O)c1ccccc1` ?
T

Reported fold induction at 10 µM at or above 2? `O=C(Nc1cc(C(F)(F)F)ccc1Cl)c1ccc([N+](=O)[O-])o1`
F

###

Test system: phosphorylated γH2A.X and TP53BP1
test details: DNA damage marker analysis (immuno-staining)
particulars: human, 24 h
experimental readout: R = Potential DNA damaging
No unit in the answer, only the number.

Field: example entries. Status: answers known.
O=C(Nc1cccc(Cl)c1)c1ccc([N+](=O)[O-])o1 :: 1
O=[N+]([O-])c1ccccc1S(=O)(=O)Nc1cccc2cccnc12 :: 1
NS(=O)(=O)c1ccc(NC(=O)c2ccc([N+](=O)[O-])o2)cc1 :: 1
CCCN1C/C(=C\c2ccc(F)cc2)C(=O)/C(=C/c2ccc(F)cc2)C1 :: 0

Read the next record carefully.
Please fill in: R = Potential DNA damaging reported for `Cc1ccc(NC(=O)c2ccc([N+](=O)[O-])o2)cc1C` = 1
